Measured residual urokinase activity in the presence of heat stabilizer accompanies every entry in the list below.
- Tested on: urokinase
- method description: Effect of heat stabilizers on residual urokinase activity after heat treatment
- Assay type: physicochemical
- run parameters: after heat treatment; concentrations of Table 2

// worked examples, residual urokinase activity in the presence of heat stabilizer included
OC[C@H]1O[C@@](CO)(O[C@H]2O[C@H](CO)[C@@H](O)[C@H](O)[C@H]2O)[C@@H](O)[C@@H]1O
75-78%
NCC(=O)O
65-75%

Now turn to the next compound.
The recorded residual urokinase activity in the presence of heat stabilizer for [Cl-].[Na+] [Sodium chloride, sodium chloride] is 71-75%
